molecular target: Cytochrome P450 1A2 (Homo sapiens); assay: Cytochrome P450 Family 1 Subfamily A Member 2 (CYP1A2) small molecule antagonists: luciferase reporter qHTS assay (AID 1671199); conditions: P450-Glo CYP1A2 enzyme, luciferin luminescence, 1 h; series mostly up to 115 µM; also: nearly all actives have a fitted effect of over 50% in size
Inconclusive results are not listed. Active and inactive are the calls of the source. Calls follow the shape of the dose curve; as a rule, active = well fitted inhibition curve with a large enough effect in the repeat runs; inconclusive = weak or mixed curves; inactive = no such curve, though single readings can be large or run the other way.
Returns: one label drawn from T = active, F = inactive

Prompt: Called result for Cc1ccc(C(=O)C(=O)O)cc1C
Completion: T

Prompt: Called result for O=C(O)/C=C/c1ccccc1
Completion: F

Prompt: Called result for Cc1nc([N+](=O)[O-])cn1-c1ccc([N+](=O)[O-])cc1
Completion: F

Prompt: Called result for CC(C)SCc1ccco1
Completion: F

Prompt: Called result for CC(C)C(=O)Nc1cccc(C(F)(F)F)c1
Completion: T

Prompt: Called result for O=C1NC2NC(=O)NC2N1 (stereo unspecified)
Completion: T

Prompt: Called result for CC1=NN(c2ccc(S(=O)(=O)O)cc2)C(=O)C1N=Nc1ccccc1 (stereo unspecified)
Completion: F

Prompt: Called result for C=CCOc1c(Br)cc(C(C)(C)c2cc(Br)c(OCC=C)c(Br)c2)cc1Br
Completion: F

Prompt: Called result for NCCc1ccn[nH]1
Completion: F

Prompt: Called result for CCCCCCCC[Si](OCC)(OCC)OCC
Completion: F

Prompt: Called result for C[C@H](CCC(=O)O)[C@H]1CC[C@H]2[C@@H]3[C@H](O)C[C@@H]4C[C@H](O)CC[C@]4(C)[C@H]3C[C@H](O)[C@]12C
Completion: F

Prompt: Called result for O=C1CC[C@H](C(=O)N2CCCCC2)N1
Completion: F

Prompt: Called result for CC(=O)OCCCc1ccccc1
Completion: F

Prompt: Called result for CCCO
Completion: F

Prompt: Called result for NS(=O)(=O)c1cc2c(cc1Cl)NC(C(Cl)Cl)NS2(=O)=O (stereo unspecified)
Completion: F

Prompt: Called result for C=C(C)C(=O)OC
Completion: F

Prompt: Called result for O=S1(=O)CCCC1
Completion: T

Prompt: Called result for CC(=O)OC(C)(C)Cc1ccccc1
Completion: F

Prompt: Called result for C=CCOCC(CO)(COCC=C)COCC=C
Completion: T

Prompt: Called result for OCCCCCCCl
Completion: F

Prompt: Called result for CCCCCCCCC(=O)OCC
Completion: F

Prompt: Called result for C1=C\CC/C=C\CC/1
Completion: F

Prompt: Called result for COC(=O)CCC(=O)O
Completion: F

Prompt: Called result for C=CCOc1cc(Cl)ccc1C(=O)NCCN(CC)CC
Completion: T

Prompt: Called result for CCN1CN(CC)CN(CC)C1
Completion: F

Prompt: Called result for O=c1[nH]c(=O)c2ccccc2o1
Completion: F

Prompt: Called result for Cc1nc(C)nc(N2C[C@@H](C)N(c3ccnc([C@@H](C)O)n3)[C@@H](C)C2)n1
Completion: F

Prompt: Called result for CCOC(=O)OCC/C(SC(=O)OCC)=C(\C)N(C=O)Cc1cnc(C)nc1N
Completion: F

Prompt: Called result for C[CH2][Ge]([Cl])([CH2]C)[CH2]C
Completion: F

Prompt: Called result for CCCCCCCC/C=C\CCCCCCCC(=O)OC[C@@H](O)[C@H]1OC[C@H](O)[C@H]1O
Completion: F

Prompt: Called result for COc1cccc2sc(N)nc12
Completion: T

Prompt: Called result for O=C(CN1CCN(Cc2ccc3c(c2)OCO3)CC1)N1c2ccccc2Sc2ccccc21
Completion: F

Prompt: Called result for CCN(CC)C(=O)C1CN2CCc3cc(OC)c(OC)cc3C2CC1OC(C)=O (stereo unspecified)
Completion: F

Prompt: Called result for O=c1cc(O)c(Cl)c[nH]1
Completion: F

Prompt: Called result for CC(C)COC(=O)COc1ccc(Cl)cc1Cl
Completion: T

Prompt: Called result for CC(=O)OC(C)c1ccccc1 (stereo unspecified)
Completion: F

Prompt: Called result for CO/N=C(/C(=O)N[C@@H]1C(=O)N2C(C(=O)O)=C(Cn3nnc(C)n3)CS[C@H]12)c1csc(N)n1
Completion: F

Prompt: Called result for CCCCC(CC)C(=O)OC(C)C (stereo unspecified)
Completion: F

Prompt: Called result for CC(C)COC(=O)CC(C(=O)OCC(C)C)S(=O)(=O)O (stereo unspecified)
Completion: F

Prompt: Called result for NC(=O)C1(N2CCCCC2)CCN(CCCC(=O)c2ccc(F)cc2)CC1
Completion: F

Prompt: Called result for CCCCCCCCCCCCCC(=O)OC
Completion: F

Prompt: Called result for Cc1cc(O)c2c(c1)C(=O)c1cccc(O)c1C2=O
Completion: T

Prompt: Called result for NS(=O)(=O)c1ccc(Cl)c(S(N)(=O)=O)c1
Completion: F

Prompt: Called result for CCCCCN(CCCOC)C(=O)C(CCC(=O)O)NC(=O)c1ccc(Cl)c(Cl)c1 (stereo unspecified)
Completion: T

Prompt: Called result for CC(=O)c1ccc2c(c1)CCCC2
Completion: T

Prompt: Called result for CN(C)CCOCCN(C)CCO
Completion: F

Prompt: Called result for O=C(Oc1ccccc1C(=O)O)c1ccccc1O
Completion: F

Prompt: Called result for COc1cc2c3cc1Oc1cc(ccc1O)C[C@@H]1c4c(cc(OC)c(O)c4Oc4ccc(cc4)C[C@@H]3N(C)CC2)CC[N+]1(C)C
Completion: F

Prompt: Called result for Cc1cccc(Nc2ccncc2S(=O)(=O)NC(=O)NC(C)C)c1
Completion: F

Prompt: Called result for CC(Cl)COP(=O)(OCC(C)Cl)OCC(C)Cl (stereo unspecified)
Completion: T

Prompt: Called result for CCCCC(=O)N(C)C
Completion: F
